The variants listed here are annotated with their protein stability index.
B1: CCND1 (parent)
chain: IRRAYPDANLLNDRVLRAMLKAEE

- Variants of: B1
- experimental.details: protein stability index of a GFP-peptide fusion (GPS, HEK-293T) (PSI 1-6); higher = more stable;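 also: lentivirally expressed fusions sorted by FACS into six bins by GFP to DsRed ratio, PSI derived from sequencing read proportions per bin multiplied by bin number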
- details: c terminus: a fixed tail appended
Number, no unit, nothing else.

Below, each entry is followed by its recorded protein stability index result.
Which protein stability index value belongs to IRRAYPDANLLNDRVLRAMLLAEE [K21L] ?
3.01

Which protein stability index value belongs to IRRAYPDANLLNNRVLRAMLKAEE [D13N] ?
2.02

Next:
Which protein stability index value belongs to IRRAYPDAELLNDRVLRAMLKAEE [N9E] ?
3.04
